The reader will find reported IC50 values listed item by item below.
biological target: human PD-1 / PD-L1-Ig binding on Jurkat cell line over-expressing human PD-1 (Jurkat-PD-1) (Homo sapiens, UniProt Q15116); construct: expressed in transfected cells; host or cells: Jurkat; experiment: Jurkat-PD-1 Cell Binding High-Content Screening Assay (CBA); assay type: cell-based; details: Jurkat-PD-1 cells, PE-labeled PD-L1-Ig 20 nM final; read-out: Jurkat HPD1_PDL1 IC50
Sequence (Q15116 25-288): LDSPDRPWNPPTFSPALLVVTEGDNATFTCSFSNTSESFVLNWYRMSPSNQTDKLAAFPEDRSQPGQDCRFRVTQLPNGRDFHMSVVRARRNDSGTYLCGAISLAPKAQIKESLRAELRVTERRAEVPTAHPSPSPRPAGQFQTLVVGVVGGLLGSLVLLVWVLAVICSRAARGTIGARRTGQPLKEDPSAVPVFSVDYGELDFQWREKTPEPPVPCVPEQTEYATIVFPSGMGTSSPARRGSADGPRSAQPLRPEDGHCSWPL
Where a SMILES comes first, the peptide text is derived from it. Bridges are numbered along the chain shown (N, C = ends). [ ]: non-standard residue; d: D form. Phe(3-Ph) = N[C@@H](Cc1cccc(-c2ccccc2)c1)C(=O)O; Bip = N[C@@H](Cc1ccc(-c2ccccc2)cc1)C(=O)O; Phe(3-Me) = Cc1cccc(C[C@H](N)C(=O)O)c1; 4Pal = N[C@@H](Cc1ccncc1)C(=O)O; Cit = NC(=O)NCCC[C@H](N)C(=O)O; Orn = NCCC[C@H](N)C(=O)O; Dab = NCC[C@H](N)C(=O)O; Dap = NC[C@H](N)C(=O)O
State the answer as a number, implicitly in nM.

Worked cases, IC50 given:
CC(C)C[C@@H]1NC(=O)[C@H](CCN)NC(=O)[C@@H](CC(C)C)NC(=O)[C@@H](CC(C)C)NC(=O)[C@H](C(C)C)NC(=O)[C@H](Cc2ccc(-c3ccccc3)cc2)NC(=O)[C@H](C(C)C)NC(=O)[C@H](Cc2c[nH]c3ccccc23)NC(=O)[C@H](CC(=O)O)NC(=O)[C@H](Cc2ccc(O)cc2)NC(=O)[C@H](CC(N)=O)NC(=O)CSC[C@@H](C(=O)N[C@@H](C)C(N)=O)NC(=O)[C@H]([C@@H](C)O)NC(=O)[C@H](C(C)C)NC1=O [Compound 1032] ({CH2CO}-NYDWV[Bip]V[dL][dL][Dab]LVTCA-NH2; thioether N-14) :: 15.5
CC(C)C[C@@H]1NC(=O)[C@H](CCN)NC(=O)[C@@H](CC(C)C)NC(=O)[C@H](CCCCN)NC(=O)[C@H](C(C)C)NC(=O)[C@H](Cc2ccc(-c3ccccc3)cc2)NC(=O)[C@H](C(C)C)NC(=O)[C@H](Cc2c[nH]c3ccccc23)NC(=O)[C@H](CC(=O)O)NC(=O)[C@H](Cc2ccc(O)cc2)NC(=O)[C@H](CC(N)=O)NC(=O)CSC[C@@H](C(=O)N[C@@H](C)C(N)=O)NC(=O)[C@H]([C@@H](C)O)NC(=O)[C@H](C(C)C)NC1=O [Compound 1025] ({CH2CO}-NYDWV[Bip]VK[dL][Dab]LVTCA-NH2; thioether N-14) :: 11
Cc1cccc(C[C@@H]2NC(=O)[C@H](CC(=O)O)NC(=O)[C@H](Cc3ccncc3)NC(=O)[C@H](CN)NC(=O)CSC[C@@H](C(N)=O)NC(=O)[C@H]([C@@H](C)O)NC(=O)[C@H](C(C)C)NC(=O)[C@H](CC(C)C)NC(=O)[C@H](CCN)NC(=O)[C@@H](CC(C)C)NC(=O)[C@H](CCCN)NC(=O)[C@H](CCCNC(N)=O)NC(=O)[C@H](Cc3cccc(-c4ccccc4)c3)NC(=O)[C@H](C(C)C)NC2=O)c1 [Compound 1654] ({CH2CO}-[Dap][4Pal]D[Phe(3-Me)]V[Phe(3-Ph)][Cit][Orn][dL][Dab]LVTC-NH2; thioether N-14) :: 124

The molecule listed as CCC(C)[C@@H]1NC(=O)[C@H](Cc2ccc(-c3ccccc3)cc2)NC(=O)[C@H](C(C)C)NC(=O)[C@H](Cc2ccc(F)c(C(F)(F)F)c2)NC(=O)[C@H](CC(=O)O)NC(=O)[C@H](Cc2ccc(OCC(=O)O)cc2)NC(=O)[C@H](CN)NC(=O)CSC[C@@H](C(=O)N[C@@H](C)C(N)=O)NC(=O)[C@H]([C@@H](C)O)NC(=O)[C@H](C(C)C)NC(=O)[C@H](CC2CCCCC2)NC(=O)[C@H](CCN)NC(=O)[C@@H](CC(C)C)NC(=O)[C@H](CCCN)NC1=O (stereo partly shown) [Compound 2245] has a reported IC50 of 45.5
